The measured values listed here are drawn from PubChem BioAssay (NCI).

# Assay Info: NCI Yeast Anticancer Drug Screen. Data for the rad50 strain (AID 155);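 also: 0% = growth of vehicle-only cultures of the same strain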
# Recorded Conditions: S. cerevisiae rad50 strain growth inhibition; at 50.0 µM; active compounds read high
Compounds without any hit were thinned out: in the full panel of roughly 79,000, 15% have a hit.
Listed below: growth inhibition values for each entry.
Please give a number only; it is taken to be in %.

Study these solved cases before continuing.
INSERT INTO assay_data (compound, value) VALUES
  ('O=C(O)c1cc(-c2ccccc2Cl)nc2ccccc12', 10.7),
  ('N#CCNC=O', -2.9),
  ('ONc1ccccc1', 15.3),
  ('CN1CSCC1C(=O)O (stereo not given)', 13),
  ('O=C(O)C1Cc2nc[nH]c2CN1CO (stereo not given)', 6.1),
  ('CC(C)CCN(C(=O)CCl)c1ccccc1', 59),
  ('C=C1C(=O)OC2/C=C(\C)C(O)CC(O)C(C)(O)CC(OC(=O)/C(C)=C/C)C12 (stereo not given)', -0.7),
  ('Cc1ccc(-c2cn3c(nc4ccccc43)c(-c3ccccc3)n2)cc1', -25.6),
  ('COC(C)(C)C(Br)C(=O)OCC(=O)c1ccc(Br)cc1 (stereo not given)', 25.9),
  ('CCCCCCC(=O)/C=C/c1ccccc1OC', 9.15);

IN: Look up and state reported growth inhibition for Nc1cc(=O)[nH]c(SC2OC(CO)C(O)C2O)n1 (stereo not given)
OUT: 29.1

IN: Please look at this compound and report its growth inhibition: "Nc1ccccc1C(=O)/C=C/c1c(O)ccc2ccccc12"
OUT: 29.6

IN: Return the recorded growth inhibition value; entry: "NCC(O)CN"
OUT: -13.8

IN: Dear colleague, please send me the reported growth inhibition for O=C(Nc1nc2ncn(CC(COc3ccccc3)OC(=O)c3ccccc3)c2c(=O)[nH]1)c1ccccc1 (stereo not given) when you can.
OUT: -9.85

IN: Tell us which growth inhibition value is on record for CC(C)N1CCC(OC(=O)Nc2ccccc2)C1 (stereo not given)
OUT: 3.85

IN: Please look at this compound and report its growth inhibition: "Cn1c(=O)c2cc(O)cnc2n(C)c1=O"
OUT: 4.8

IN: For the compound "C#CCSC(=N)N" , give its reported growth inhibition.
OUT: 5.4

IN: Fill in reported growth inhibition for this entry: "CCCCCc1c(-c2n[nH]c(C)c2CCCCC)n[nH]c1C"
OUT: 5.55

IN: Could you please provide reported growth inhibition for OC1CCCNC1 (stereo not given) ? Thanks!
OUT: 16.9

IN: Write down growth inhibition measured for item "CC[N+](C)(CC)Cc1ccc([NH-])c([NH-])c1.[Cl][Pt+2][Cl]"
OUT: 35.1

IN: Return growth inhibition for the following compound: "CC(C)(C)C(=O)/C=C(\OB(F)F)C(C)(C)C"
OUT: 2.25

IN: Supply recorded growth inhibition for "O=C1/C(=N\N(C(=O)c2ccccc2)c2ccccc2)c2cccc3cccc1c23" here.
OUT: 11.8

IN: Look up and report measured growth inhibition for this entry: "COC(=O)/C=C(/C(=O)OC)N(O)C(=O)CN1C(=O)c2ccccc2C1=O"
OUT: -16

IN: Give me measured growth inhibition, please, for this compound: "Oc1cc(OCCCc2ccc(F)cc2)cc2ccc3ccccc3c12"
OUT: 50.5

IN: In one line, give reported growth inhibition of the entry CC(=O)OC1(C(=O)OCC2CCCO2)CCCC1 (stereo not given) .
OUT: -9.6

IN: Quote growth inhibition reported for "CCOC(=O)Cn1c(=O)c2ccccc2c2cc([N+](=O)[O-])ccc21" please.
OUT: -6.45

IN: In one line, give reported growth inhibition of the entry "CCOC(=O)c1[nH]c(-c2ccc(OC)cc2)c(C(=O)OCC)c1-c1ccccc1" .
OUT: 38.6

IN: Retrieve growth inhibition measured for CCCOc1cc2c(cc1C(C)c1ccc(OC)cc1)OCO2 (stereo not given) and print it.
OUT: 9.8

IN: Check the records and state growth inhibition for "c1ccc(C2OCCO2)c(OCCOc2cc(OCCOc3ccccc3C3OCCO3)c(OCCOc3ccccc3C3OCCO3)cc2OCCOc2ccccc2C2OCCO2)c1"
OUT: -7.6

IN: Check the records and state growth inhibition for "CN(C)c1ccc(/C=C/C(=O)/C=C/c2ccc(N(C)C)cc2)cc1"
OUT: -13.5
